- SYSTEM: Progesterone receptor (Homo sapiens)
- ASSAY TEXT: Agonist efficacy towards human progesterone receptor (hPR) using the cotransfection assay in CV-1 cells
- Format: functional, cell-based
ASSAY READOUT: Efficacy (%)
Answers are plain numbers, in %.

> print(dat)
                                   compound  assay.readout  value.units  result.number
1  CC/C(C)=C1/Oc2ccc(F)cc2-c2ccc3c(c21)C(C)=CC(C)(C)N3       Efficacy            %             64
2  CC/C(C)=C1\Oc2ccc(F)cc2-c2ccc3c(c21)C(C)=CC(C)(C)N3       Efficacy            %            112
3  C=C(/C=C1\Oc2ccc(F)cc2-c2ccc3c(c21)C(C)=CC(C)(C)N3)C(C)C       Efficacy            %            122
4  CC1=CC(C)(C)Nc2ccc3c(c21)/C(=C/Br)Oc1ccc(F)cc1-3       Efficacy            %            135
5  CC(C)=C/C=C1\Oc2ccc(F)cc2-c2ccc3c(c21)C(C)=CC(C)(C)N3       Efficacy            %            172

Parameters: items (list). Returns: Efficacy for each item.
1. C=C1Oc2ccc(F)cc2-c2ccc3c(c21)C(C)=CC(C)(C)N3
2. CCC/C=C1\Oc2ccc(F)cc2-c2ccc3c(c21)C(C)=CC(C)(C)N3
3. CC1=CC(C)(C)Nc2ccc3c(c21)/C(=C/C1CCCCC1)Oc1ccc(F)cc1-3
4. CC1=CC(C)(C)Nc2ccc3c(c21)/C(=C/C#N)Oc1ccc(F)cc1-3

**Result**
1. 87
2. 90
3. 28
4. 70

Parameters: items (list). Returns: Efficacy for each item.
1. CC(=O)C[C@]1(C(C)=O)CC[C@H]2C3C[C@H](C)C4=CC(=O)CC[C@]4(C)[C@H]3CC[C@@]21C (stereo partly specified)
2. CC1=CC(C)(C)Nc2ccc3c(c21)C(=C1SCCCS1)Oc1ccc(F)cc1-3

**Result**
80
151
